Cited source: patent US7094911B2

Below, each entry is listed with its recorded melting point.

input: Request the reported melting point associated with COc1ccc(-c2cccc(NC(=O)c3ncc[nH]3)c2)cc1S(=O)(=O)NC(CC(=O)O)c1ccccc1 (stereo not drawn) [Example 19.5]
output: > 200 °C

input: Param item: COc1ccc(-c2cccc(Nc3ccccn3)c2)cc1S(=O)(=O)NC(CC(=O)O)c1ccccc1 (stereo not drawn) [Example 20.5]
output: > 240 °C

input: // same read-out, input: Cc1cc(C)c(S(=O)(=O)N[C@@H](Cc2ccc(-c3cccc(NC(=O)c4ccc[nH]4)c3)cc2)C(=O)O)c(C)c1 [Example 19.2]
output: 140 °C (dec.)

input: Continue with O=C(O)CC(NS(=O)(=O)c1cccc(-c2cccc(Nc3c(Nc4nc5ccccc5[nH]4)c(=O)c3=O)c2)c1)c1ccccc1 (stereo not drawn) [Example 13.6]
output: 191 °C (dec.)

input: Next record, please: O=C(O)[C@H](Cc1ccc(-c2cccc(CNc3ccccn3)c2)cc1)NS(=O)(=O)c1cccs1 [Example 18.9]
output: > 240 °C

input: Again, but for C=CCN/C(=C\[N+](=O)[O-])Nc1cccc(-c2ccc(C[C@H](NS(=O)(=O)CC34CC[C@@H](CC3=O)C4(C)C)C(=O)O)cc2)c1 [Example 12.5]
output: 150 °C (dec.)
